Source: patent US20240199746A1

Each entry below carries its reported Affinity ELISA CPE mutant ratio (1:3, pH 6.0/7.4).
Target: T1, Ax1 protein, extracellular domain (human, UniProt P30530 26-451)
T1 construct: extracellular domain; also called Axl; Ark
T1 sequence (looked up): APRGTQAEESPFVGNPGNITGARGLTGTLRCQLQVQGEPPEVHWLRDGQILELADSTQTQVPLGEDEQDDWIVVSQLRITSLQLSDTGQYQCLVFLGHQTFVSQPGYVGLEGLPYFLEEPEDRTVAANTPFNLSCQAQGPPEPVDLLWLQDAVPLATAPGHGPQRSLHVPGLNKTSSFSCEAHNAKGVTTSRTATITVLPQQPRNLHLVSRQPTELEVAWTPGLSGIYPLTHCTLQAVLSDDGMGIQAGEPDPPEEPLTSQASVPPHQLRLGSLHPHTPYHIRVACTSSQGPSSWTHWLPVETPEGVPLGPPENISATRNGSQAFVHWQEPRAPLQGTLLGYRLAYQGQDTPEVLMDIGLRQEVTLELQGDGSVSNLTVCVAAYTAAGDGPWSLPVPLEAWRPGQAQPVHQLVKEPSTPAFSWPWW
Experiment: ELISA, mutant diluted 1:3
// return just the number, without any unit appended

Solved entries:
{"binder": "HC-B102A (antibody, V domains shown, CPE single point mutant; printed B102, read as E102 (other rows print HC-E102x)) VH: EVQLVQSGAEVKKPGATVKISCKVSGYSFTGHTMNWIRQPPGKGLEWIGLIKPSNGGTSYNQKFKGRVTISADKSISTAYLQWSSLKASDTAMYYCAHGHYASYFAMDYWGQGTLVTVSS VL: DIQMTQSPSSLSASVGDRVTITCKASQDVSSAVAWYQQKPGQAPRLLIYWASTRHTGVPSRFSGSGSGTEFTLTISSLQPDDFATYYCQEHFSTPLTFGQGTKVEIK", "valueReported": 1.53}
{"binder": "HC-H100D (antibody, V domains shown, CPE single point mutant) VH: EVQLVQSGAEVKKPGATVKISCKVSGYSFTGHTMNWIRQPPGKGLEWIGLIKPSNGGTSYNQKFKGRVTISADKSISTAYLQWSSLKASDTAMYYCAHGDYESYFAMDYWGQGTLVTVSS VL: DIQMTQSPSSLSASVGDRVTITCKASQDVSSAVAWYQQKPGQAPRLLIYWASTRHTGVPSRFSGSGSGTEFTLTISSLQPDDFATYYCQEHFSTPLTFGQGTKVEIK", "valueReported": 2.42}

Continue with the next binder.
[in] Value lookup for Affinity ELISA CPE mutant ratio (1:3, pH 6.0/7.4); key = LC-F092C (antibody, V domains shown, CPE single point mutant) VH: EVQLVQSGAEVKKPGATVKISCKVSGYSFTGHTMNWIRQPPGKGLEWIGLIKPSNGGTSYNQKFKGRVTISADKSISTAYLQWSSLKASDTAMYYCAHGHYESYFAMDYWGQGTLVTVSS VL: DIQMTQSPSSLSASVGDRVTITCKASQDVSSAVAWYQQKPGQAPRLLIYWASTRHTGVPSRFSGSGSGTEFTLTISSLQPDDFATYYCQEHCSTPLTFGQGTKVEIK
[out] 3.86
